system: dengue virus type 4; test: Activity of dengue virus 4 recombinant NS3 protease expressed in Escherichia coli C41(DE3) by fluorogenic assay
Non-standard residues stand in square brackets, D forms with d. Residues, ends and D or L forms follow the SMILES beside them. Tyr(3-NO2) = N[C@@H](Cc1ccc(O)c([N+](=O)[O-])c1)C(=O)O; 2Abz = Nc1ccccc1C(=O)O
ENDPOINT_NAME: log10(Km) (log10 of the value in µM)
Scale: log10; quantity: Km; unit before log: µM

State the recorded log10(Km) for this entry: C[C@H](NC(=O)c1ccccc1N)C(=O)N1CCC[C@H]1C(=O)NCC(=O)N[C@@H](CC(=O)O)C(=O)N[C@@H](Cc1ccc(O)c([N+](=O)[O-])c1)C(N)=O (H-[2Abz]APGD[Tyr(3-NO2)]-NH2)
1.95

Further, for C[C@@H](O)[C@H](NC(=O)CNC(=O)CNC(=O)c1ccccc1N)C(=O)N[C@@H](CC(=O)O)C(=O)N[C@@H](Cc1ccc(O)c([N+](=O)[O-])c1)C(N)=O (H-[2Abz]GGTD[Tyr(3-NO2)]-NH2) ?
1.09

Further, for NC(=O)C[C@H](NC(=O)CNC(=O)[C@H](Cc1cnc[nH]1)NC(=O)[C@H](Cc1cnc[nH]1)NC(=O)c1ccccc1N)C(=O)N[C@@H](Cc1ccc(O)c([N+](=O)[O-])c1)C(N)=O (H-[2Abz]HHGN[Tyr(3-NO2)]-NH2) ?
0.85

Further, for CC(C)C[C@H](NC(=O)[C@H](Cc1cnc[nH]1)NC(=O)c1ccccc1N)C(=O)N[C@H](C(=O)N[C@@H](Cc1cnc[nH]1)C(=O)N[C@@H](Cc1ccc(O)c([N+](=O)[O-])c1)C(N)=O)C(C)C (H-[2Abz]HLVH[Tyr(3-NO2)]-NH2) ?
1.21

Further, for NC(=O)[C@H](Cc1ccc(O)c([N+](=O)[O-])c1)NC(=O)[C@H](CC(=O)O)NC(=O)[C@H](CO)NC(=O)[C@H](Cc1c[nH]c2ccccc12)NC(=O)[C@H](Cc1cnc[nH]1)NC(=O)c1ccccc1N (H-[2Abz]HWSD[Tyr(3-NO2)]-NH2) ?
0.99

Further, for CC(C)[C@H](NC(=O)[C@H](CC(=O)O)NC(=O)[C@H](CC(N)=O)NC(=O)c1ccccc1N)C(=O)N[C@@H](CC(=O)O)C(=O)N[C@@H](Cc1ccc(O)c([N+](=O)[O-])c1)C(N)=O (H-[2Abz]NDVD[Tyr(3-NO2)]-NH2) ?
1.93

Further, for NC(=O)[C@H](Cc1ccc(O)c([N+](=O)[O-])c1)NC(=O)[C@H](CS)NC(=O)[C@@H]1CCCN1C(=O)[C@H](CC(=O)O)NC(=O)CNC(=O)c1ccccc1N (H-[2Abz]GDPC[Tyr(3-NO2)]-NH2) ?
1.06

Further, for CC(C)[C@H](NC(=O)[C@@H](NC(=O)CNC(=O)c1ccccc1N)[C@@H](C)O)C(=O)N[C@@H](CC(N)=O)C(=O)N[C@@H](Cc1ccc(O)c([N+](=O)[O-])c1)C(N)=O (H-[2Abz]GTVN[Tyr(3-NO2)]-NH2) ?
1.07

Further, for NC(=O)[C@H](Cc1ccc(O)c([N+](=O)[O-])c1)NC(=O)[C@@H]1CCCN1C(=O)[C@@H]1CCCN1C(=O)CNC(=O)c1ccccc1N (H-[2Abz]GPP[Tyr(3-NO2)]-NH2) ?
0.91

Further, for CC(C)C[C@H](NC(=O)[C@@H](NC(=O)CNC(=O)[C@H](C)NC(=O)c1ccccc1N)C(C)C)C(=O)N[C@@H](Cc1ccc(O)c([N+](=O)[O-])c1)C(N)=O (H-[2Abz]AGVL[Tyr(3-NO2)]-NH2) ?
1.03

Further, for C[C@H](NC(=O)c1ccccc1N)C(=O)NCC(=O)N1CCC[C@H]1C(=O)N[C@@H](CC(N)=O)C(=O)N[C@@H](Cc1ccc(O)c([N+](=O)[O-])c1)C(N)=O (H-[2Abz]AGPN[Tyr(3-NO2)]-NH2) ?
1.28

Further, for CC(C)C[C@H](NC(=O)[C@@H]1CCCN1C(=O)[C@H](Cc1c[nH]c2ccccc12)NC(=O)[C@H](CO)NC(=O)c1ccccc1N)C(=O)N[C@@H](Cc1ccc(O)c([N+](=O)[O-])c1)C(N)=O (H-[2Abz]SWPL[Tyr(3-NO2)]-NH2) ?
0.86

Further, for CC(C)[C@H](NC(=O)[C@H](C)NC(=O)[C@H](C)NC(=O)c1ccccc1N)C(=O)N[C@@H](CC(=O)O)C(=O)N[C@@H](Cc1ccc(O)c([N+](=O)[O-])c1)C(N)=O (H-[2Abz]AAVD[Tyr(3-NO2)]-NH2) ?
1.57

Further, for C[C@@H](O)[C@H](NC(=O)[C@H](CO)NC(=O)[C@H](CC(=O)O)NC(=O)c1ccccc1N)C(=O)N[C@@H](CS)C(=O)N[C@@H](Cc1ccc(O)c([N+](=O)[O-])c1)C(N)=O (H-[2Abz]DSTC[Tyr(3-NO2)]-NH2) ?
1.36

Further, for NC(=O)C[C@H](NC(=O)[C@H](Cc1cnc[nH]1)NC(=O)c1ccccc1N)C(=O)N[C@@H](CS)C(=O)N[C@@H](CS)C(=O)N[C@@H](Cc1ccc(O)c([N+](=O)[O-])c1)C(N)=O (H-[2Abz]HNCC[Tyr(3-NO2)]-NH2) ?
0.52

Further, for NC(=O)[C@H](Cc1ccc(O)c([N+](=O)[O-])c1)NC(=O)[C@H](CC(=O)O)NC(=O)[C@H](CS)NC(=O)[C@H](Cc1cnc[nH]1)NC(=O)[C@H](CO)NC(=O)c1ccccc1N (H-[2Abz]SHCD[Tyr(3-NO2)]-NH2) ?
0.99

Further, for C[C@H](NC(=O)c1ccccc1N)C(=O)N[C@@H](Cc1cnc[nH]1)C(=O)N[C@@H](CO)C(=O)N[C@@H](CS)C(=O)N[C@@H](Cc1ccc(O)c([N+](=O)[O-])c1)C(N)=O (H-[2Abz]AHSC[Tyr(3-NO2)]-NH2) ?
0.62

---

system: dengue virus type 1; experiment: Activity of dengue virus 1 recombinant NS3 protease expressed in Escherichia coli C41(DE3) by fluorogenic assay
Non-standard residues stand in square brackets, D forms with d. Residues, ends and D or L forms follow the SMILES beside them. Tyr(3-NO2) = N[C@@H](Cc1ccc(O)c([N+](=O)[O-])c1)C(=O)O; 2Abz = Nc1ccccc1C(=O)O
ENDPOINT_NAME: kcat (s⁻¹)
Dear colleague, please return just the value in s⁻¹, with no unit written.

State the recorded kcat for this entry: C[C@@H](O)[C@H](NC(=O)[C@H](Cc1c[nH]c2ccccc12)NC(=O)[C@H](CC(N)=O)NC(=O)c1ccccc1N)C(=O)N[C@@H](CC(N)=O)C(=O)N[C@@H](Cc1ccc(O)c([N+](=O)[O-])c1)C(N)=O (H-[2Abz]NWTN[Tyr(3-NO2)]-NH2)
0.0145

Further, for C[C@@H](O)[C@H](NC(=O)[C@H](CO)NC(=O)[C@H](CC(=O)O)NC(=O)c1ccccc1N)C(=O)N[C@@H](CS)C(=O)N[C@@H](Cc1ccc(O)c([N+](=O)[O-])c1)C(N)=O (H-[2Abz]DSTC[Tyr(3-NO2)]-NH2) ?
0.00767

Further, for CC(C)C[C@H](NC(=O)[C@@H](NC(=O)CNC(=O)[C@H](C)NC(=O)c1ccccc1N)C(C)C)C(=O)N[C@@H](Cc1ccc(O)c([N+](=O)[O-])c1)C(N)=O (H-[2Abz]AGVL[Tyr(3-NO2)]-NH2) ?
0.06

Further, for C[C@@H](O)[C@H](NC(=O)[C@H](CO)NC(=O)c1ccccc1N)C(=O)N1CCC[C@H]1C(=O)N[C@@H](Cc1cnc[nH]1)C(=O)N[C@@H](Cc1ccc(O)c([N+](=O)[O-])c1)C(N)=O (H-[2Abz]STPH[Tyr(3-NO2)]-NH2) ?
0.0313

---

system: dengue virus type 1; assay: Activity of dengue virus 1 recombinant NS3 protease expressed in Escherichia coli C41(DE3) by fluorogenic assay
Non-standard residues stand in square brackets, D forms with d. Residues, ends and D or L forms follow the SMILES beside them. Tyr(3-NO2) = N[C@@H](Cc1ccc(O)c([N+](=O)[O-])c1)C(=O)O; 2Abz = Nc1ccccc1C(=O)O
ENDPOINT_NAME: Km (µM)
Dear colleague, please return just the value in µM, with no unit written.

State the recorded Km for this entry: CC(C)[C@H](NC(=O)[C@H](C)NC(=O)[C@H](C)NC(=O)c1ccccc1N)C(=O)N[C@@H](CC(=O)O)C(=O)N[C@@H](Cc1ccc(O)c([N+](=O)[O-])c1)C(N)=O (H-[2Abz]AAVD[Tyr(3-NO2)]-NH2)
31.4

Further, for NC(=O)[C@H](Cc1ccc(O)c([N+](=O)[O-])c1)NC(=O)[C@H](CC(=O)O)NC(=O)[C@H](CS)NC(=O)[C@H](Cc1cnc[nH]1)NC(=O)[C@H](CO)NC(=O)c1ccccc1N (H-[2Abz]SHCD[Tyr(3-NO2)]-NH2) ?
26.3

Further, for C[C@@H](O)[C@H](NC(=O)[C@H](CO)NC(=O)[C@H](CC(=O)O)NC(=O)c1ccccc1N)C(=O)N[C@@H](CS)C(=O)N[C@@H](Cc1ccc(O)c([N+](=O)[O-])c1)C(N)=O (H-[2Abz]DSTC[Tyr(3-NO2)]-NH2) ?
15.2

Further, for NC(=O)C[C@H](NC(=O)c1ccccc1N)C(=O)N1CCC[C@H]1C(=O)N[C@@H](CO)C(=O)N[C@@H](Cc1cnc[nH]1)C(=O)N[C@@H](Cc1ccc(O)c([N+](=O)[O-])c1)C(N)=O (H-[2Abz]NPSH[Tyr(3-NO2)]-NH2) ?
13.4

The reported numbers originate from ChEMBL document CHEMBL1152244.
